biological target: CaBem1-D1; test: SPOT peptide array binding signal intensity (averaged, normalized) (arbitrary units (background-subtracted, floor 0; scale differs between SH3 domains)); higher = stronger binding of the SH3 domain to the peptide
Assignment: determine reported SPOT peptide array binding signal intensity for the given binders.
The reply should be a number, written without any unit.

Challenge: I would be grateful if you could share the reported SPOT peptide array binding signal intensity for `VNFRRIPTGPDSPPT` .
Response given: 6

Challenge: Would you kindly repeat that for `LKHGWKPLRPIKLIS` ?
Response given: 23

Challenge: Would you kindly repeat that for `ILARAILTIPRVLDK` ?
Response given: 33.5

Challenge: Would you kindly repeat that for `DRIRMFIRFPKFLLE` ?
Response given: 27
